- study system: Tyrosinase (Mus musculus) (UniProt P11344)
- Sequence (whole entry): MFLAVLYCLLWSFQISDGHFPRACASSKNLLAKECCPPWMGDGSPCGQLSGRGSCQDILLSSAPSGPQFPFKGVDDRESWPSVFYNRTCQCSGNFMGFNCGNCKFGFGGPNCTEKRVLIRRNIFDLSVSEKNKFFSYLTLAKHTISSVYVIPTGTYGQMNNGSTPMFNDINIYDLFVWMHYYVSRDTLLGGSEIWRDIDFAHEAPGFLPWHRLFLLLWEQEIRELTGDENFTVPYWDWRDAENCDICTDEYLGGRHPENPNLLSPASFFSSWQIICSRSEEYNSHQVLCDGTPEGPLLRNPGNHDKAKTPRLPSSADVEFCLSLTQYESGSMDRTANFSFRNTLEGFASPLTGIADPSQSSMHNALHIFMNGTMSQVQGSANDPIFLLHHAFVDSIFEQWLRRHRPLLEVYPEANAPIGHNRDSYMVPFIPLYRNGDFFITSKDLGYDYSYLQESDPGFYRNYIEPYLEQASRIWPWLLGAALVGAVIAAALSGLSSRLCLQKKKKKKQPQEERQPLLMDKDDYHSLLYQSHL
- test settings: at 25 µM
- Description: Inhibition of tyrosinase in mouse B16-F1 cell lysates assessed as reduction in melanin production at 25 uM using L-DOPA as substrate incubated for 30 mins followed by substrate addition measured after 30 mins
inhibition by entry:

* O=C(/C=C/c1ccc(O)c(O)c1)O[C@H]1[C@H](O)C[C@@](O)(C(=O)O)C[C@H]1OC(=O)/C=C/c1ccc(O)c(O)c1 | > 20%
* O=C(/C=C/c1ccc(O)c(O)c1)OC1[C@H](O)CC(OC(=O)/C=C/c2ccc(O)c(O)c2)(C(=O)O)C[C@@H]1O (some centres undefined) | > 20%

[ask] In one line, give reported inhibition of the entry O=C(/C=C/c1ccc(O)c(O)c1)O[C@@H]1C[C@@](OC(=O)/C=C/c2ccc(O)c(O)c2)(C(=O)O)C[C@@H](O)[C@@H]1O .
[reply] > 20%

* * *

- study system: Tyrosinase (Mus musculus) (UniProt P11344)
- test settings: at 25 µM
# inhibition values compiled below

Example results:
• O=C(/C=C/c1ccc(O)c(O)c1)O[C@@H]1[C@H](O)C[C@@](O)(C(=O)O)C[C@H]1OC(=O)/C=C/c1ccc(O)c(O)c1 = > 20%
• O=C(/C=C/c1ccc(O)c(O)c1)O[C@H]1C[C@@](OC(=O)/C=C/c2ccc(O)c(O)c2)(C(=O)O)C[C@H](O)[C@@H]1O = > 20%

Turning now to a further record.
[ask] Return value of inhibition for input O=C(/C=C/c1ccc(O)c(O)c1)O[C@@H]1C[C@](O)(C(=O)O)C[C@@H](OC(=O)/C=C/c2ccc(O)c(O)c2)[C@H]1O , no commentary.
[reply] > 20%
